Every entry's value here was drawn from the supplement of paper PMC10126150.

# Tested on: ATP;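 further: ATP exposure 15 min at 22 °C before imaging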
# experimental.protocol: switch fluorescence ratio, 500 uM ATP over buffer (Cy3 cluster intensity, sum of 5 cycles each) (fold (ratio)); higher = stronger signal-on switching upon ATP binding; sequences stand for … in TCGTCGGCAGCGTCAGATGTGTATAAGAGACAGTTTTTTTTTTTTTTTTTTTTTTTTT…TC
# cond: aptamer strand: ATP DNA aptamer (quencher-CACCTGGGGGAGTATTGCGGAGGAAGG + anchor), 100 nM annealed; ATP concentration: 500 uM
test.readout: switch fluorescence ratio
Numbers only.

Check out these entries, answers already filled in.
GATGGCGGTG; 0.995
GACTGGGGTT; 0.989
ACGGTTCCTG; 1
AAATATAAGC; 1.03
ATGGGTGAGT; 1

Each sequence below has a recorded value; state its switch fluorescence ratio.
1. GGACAAAACT
2. ATGCTGGGCG

1.08
1.02

Each sequence below has a reported value. Please supply its switch fluorescence ratio.
1. AAGGGGCTTG
2. TAATTATGTG
3. TGGGGGTGCA
4. TTAAAGATAT
5. AACCGCGATG

[0.986, 0.986, 1.01, 1.23, 2.25]

# batch size: 4; output switch fluorescence ratio per entry
1. AGGGTATTCA
2. AAGCTAATTT
3. ATGTTTATCG
4. TGGGCTAAGC

1.01
1.01
0.97
1.03

Batch of 4 sequences: report switch fluorescence ratio for each.
1. TAGAGAGGGT
2. TTTGAAATTT
3. GCCGTGTAGA
4. TGTGGTTGGG

1. 0.995
2. 1.01
3. 1.05
4. 0.989
